These measurements were taken from patent US20150266864A1.

The entries below come with measured melting point values attached.

compound	melting point
Fc1ccc(-c2n[nH]cc2CCN2CCCCC2)cc1	145 to 146 °C
CCN1CCN(CCc2c[nH]nc2-c2ccc(F)cc2)CC1.Cl.Cl.Cl.O.O.O (hydrate or solvate)	226 to 237 °C (dec.)

Request: What value of measured melting point is listed for OC1(c2ccc(Cl)cc2)CCN(CCc2c[nH]nc2-c2ccc(F)cc2)CC1 ?
Response: 142 to 144 °C

Request: Data request, read-out melting point, for CCOC(=O)C1(c2ccccc2)CCN(CCc2c[nH]nc2-c2ccc(F)cc2)CC1
Response: 138 to 139.5 °C

Request: What does the data say about its melting point? Entry: Cl.Cl.Fc1ccc(-c2n[nH]cc2CCN2CCCCC2)cc1.O (hydrate or solvate)
Response: 277 to 279 °C

Request: If you can, please state the reported melting point value of Cl.Cl.Fc1ccc(-c2n[nH]cc2CCN2CCOCC2)cc1.O (hydrate or solvate) .
Response: 113 to 126 °C (dec.)

Request: Form field: reported melting point of Cl.OC1(c2ccc(Cl)cc2)CCN(CCc2conc2-c2ccc(F)cc2)CC1
Response: 222 to 226 °C (dec.)

###

Test system: Swiss-type male mice
measurement description: RotaRod performance test, motor coordination
condition info: T 120 min after ip administration, 32.25 μmol/kg (diazepam 2 mg/kg), 9 rpm, cut off 180 s, mean ± SEM
Measured Mice residence time on the rotational cylinder, listed per entry for reference.
Write it as a number; the unit s goes unstated.

compound	tested target	unit string	test value
CN1CCN(CCc2c[nH]nc2-c2ccc(F)cc2)CC1.Cl.Cl.Cl.O.O [C11]	Swiss-type male mice	s	176.7
CCN1CCN(CCc2c[nH]nc2-c2ccc(F)cc2)CC1.Cl.Cl.Cl.O.O.O [C12]	Swiss-type male mice	s	179.8
CC(=O)O.OC1(c2ccc(Cl)cc2)CCN(CCc2cncnc2-c2ccc(F)cc2)CC1 [C16]	Swiss-type male mice	s	126.3
CCOC(=O)C1(c2ccccc2)CCN(CCc2conc2-c2ccc(F)cc2)CC1.Cl [C17]	Swiss-type male mice	s	175.6
OC1(c2ccc(Cl)cc2)CCN(CCc2c[nH]nc2-c2ccc(F)cc2)CC1 [C13]	Swiss-type male mice	s	152.4

Request: Any idea what Mice residence time on the rotational cylinder was measured for Cl.Cl.Fc1ccc(-c2n[nH]cc2CCN2CCOCC2)cc1.O [C9] ?
Response: 175.3

Request: Look at this compound and give its reported Mice residence time on the rotational cylinder. Cl.OC1(c2ccc(Cl)cc2)CCN(CCc2conc2-c2ccc(F)cc2)CC1 [C15]
Response: 180.0

Request: Entry Cl.Cl.Fc1ccc(-c2n[nH]cc2CCN2CCCCC2)cc1.O [C3] has what Mice residence time on the rotational cylinder?
Response: 180.0
